Origin of measurements: ChEMBL document CHEMBL1201862

# System: NCI-H226
# Experiment: NCI tumour cell line growth inhibition, 48 h
Activity calls are given as the source filed them. No stated cut-off is given here; in the data, active = GI50 up to about 1.1 µM and inactive = higher.
Some compounds, each annotated with its measured GI50.

Compound	GI50
C=CCN(c1cc(OCc2ccccc2)c2c(c(C)cn2S(=O)(=O)c2ccc([N+](=O)[O-])cc2)c1[N+](=O)[O-])S(C)(=O)=O	> 100 µM (inactive)
O=C(N/N=C1\CCc2ccccc2C1)N/N=C1\CCc2ccccc2C1	> 10 µM (inactive)
O=S(=O)(O)c1ccc(-c2c3nc(c(-c4ccc(S(=O)(=O)O)cc4)c4ccc([nH]4)c(-c4ccc(S(=O)(=O)O)cc4)c4nc(c(-c5ccc(S(=O)(=O)O)cc5)c5ccc2[nH]5)C=C4)C=C3)cc1	32.7 µM (inactive)

Request: I am curious: what GI50 value has been reported for O=C(CC(=O)N(C(=O)c1ccccc1)c1ccc(Cl)cc1)N/N=C\c1ccccc1O ?
Result: 35.5 µM (inactive)

---

# Tested on: XF498
# Experiment: NCI tumour cell line growth inhibition, 48 h
Calls of active or inactive are those of the source. Rule as the data show it: active = GI50 up to about 1.1 µM and inactive = higher.
Tick one outcome: active, inactive

Record excerpt, results attached:
> print(dat)
                                   compound  class.name
1  COC(=O)CC1NC(=O)[C@@H]1C(C)O (stereo partly drawn)    inactive
2      N[C@H](C(=O)O)[C@H]1ON=C(Cl)[C@@H]1O    inactive
3  CC(C)(C)[Si](C)(C)O/N=C\c1cccc(O[Si](C)(C)C(C)(C)C)c1    inactive
4  CCCCN(CCCC)C(=O)/C(CC(=O)c1cccc2ccccc12)=N\NC(=O)c1cc2ccccc2cc1O    inactive
5  NNC(=O)C1CCC(=O)N1S(=O)(=O)c1ccccc1 (stereo not drawn)    inactive
6  CO[C@@H]1C=C[C@@]23c4cc5c(cc4CN(C[C@@H]2O)[C@H]3C1)OCO5 [(+)-HAEMANTHAMINE]    inactive

Request: State the result this test recorded for COC1CC(O)C(OC(=O)c2ccccc2)C(C)O1 (stereo not drawn) .
Result: inactive

Request: Assay outcome for C/C(=N\NC(=S)N1CCC1)c1ccccn1 : what was it?
Result: active

---

# System: SK-MEL-28
# Experiment: NCI tumour cell line growth inhibition, 48 h
Active and inactive are the calls of the source. No stated cut-off is given here; in the data, active = GI50 up to about 1.1 µM and inactive = higher.
Below, each entry is listed alongside its reported GI50.

> print(dat)
                                  compound  experimental.result
1   CCCCNC(=O)C1=C(C)NC(C)=C(C(=O)NCCCC)C1  > 100 µM (inactive)
2  OCC1OC(c2ccccc2)CC1O (stereo not drawn)  > 100 µM (inactive)
3          CCOC(=O)c1c(-c2ccc(OC)cc2)ccn1C   4.54 µM (inactive)

Request: What value of GI50 has been recorded for this entry: COC1CC(O)C(OC(=O)c2ccccc2)C(C)O1 (stereo not drawn)
Result: > 100 µM (inactive)

Request: Can you share its GI50? I mean this compound: CSCCC(NC(c1ccccc1)c1ccccc1)[PH](=O)O (stereo not drawn)
Result: > 100 µM (inactive)

Request: May I ask what GI50 has been recorded for O=C1NC2c3c(I)sc(I)c3C(=O)C2O1 (stereo not drawn) ?
Result: 7.41 µM (inactive)

---

# System: T47D
# Experiment: NCI tumour cell line growth inhibition, 48 h
Calls of active or inactive are those of the source. No stated cut-off is given here; in the data, active = GI50 up to about 1.1 µM and inactive = higher.
Entries and their GI50

Consider the reported GI50 for these compounds:
> print(dat)
                                   compound  experimental.result
1  O=C(O)C1C(C(=O)O)C(C(=O)O)C1C(=O)O (stereo unspecified)  > 100 µM (inactive)
2  O=C(CC(=O)N(C(=O)c1ccccc1)c1ccc(Cl)cc1)N/N=C\c1ccccc1O   49.7 µM (inactive)
3  COc1cc(C(CN)N(C)C)cc(OC)c1OC (stereo unspecified)  > 100 µM (inactive)

Request: Which measured GI50 value corresponds to O=C(O)[C@@H]1CCS(=O)(=O)N1 ?
Result: > 100 µM (inactive)

Request: Record request: GI50 value, item O=C1/C(=C\c2ccc(Cl)cc2Cl)Sc2scc(-c3cccc([N+](=O)[O-])c3)[n+]21
Result: 12.2 µM (inactive)

Request: Which GI50 is reported for this compound? O=C1/C(=C/c2ccc(Br)s2)NC(=S)N1CN1CCOCC1
Result: 49.5 µM (inactive)
